Reference source for all entries: paper PMC11480844

B1: H2-Kb / B16 (parent)
chain 1: QQQVRQSPQSLTVWEGGTTVLTCSYEDSTFNYFPWYQQFPGEGPALLISILSVSDKKEDGRFTTFFNKREKKLSLHIIDSQPGDSATYFCAARGSALGRLHFGAGTQLIVIP
chain 2: EAAVTQSPRSKVAVTGGKVTLSCHQTNNHDYMYWYRQDTGHGLRLIHYSYVADSTEKGDIPDGYKASRPSQENFSLILELASLSQTAVYFCASSDGTNQAPLFGEGTRLSVL
chain 3: not shown
chain 4: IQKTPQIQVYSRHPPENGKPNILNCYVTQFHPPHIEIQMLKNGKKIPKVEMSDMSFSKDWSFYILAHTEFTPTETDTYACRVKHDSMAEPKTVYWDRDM
chain 5: SIINFEKL

- Variants of: B1
- Test protocol: % of reporter cells activated (NFAT-GFP), raw; also: test concentration or dose not given here
- Test parameters: with B16; scale: % of reporter cells activated
Assay readout: ratio to parent

chain 5 L8I
0.602
chain 5 N4Q
0.992

a = chain 5 S1P
b = chain 5 N4F
c = chain 5 E6C
Request: List by increasing ratio to parent. Give your ranking as a list of the labels in the requested order.
Response: b, a, c
(b: 0.909, a: 1.3, c: 2.48)
